# ASSAY_INFO: Neurotoxicity in ip dosed albino CF-1 mouse by horizontal screen test
# Assay type: toxicity, organism-based
# TEST_PARAMETERS: in vivo
READOUT_NAME: TD50

## Task Entry under review: CC(=O)NC(C(=O)NCc1ccccc1)c1ccccc1 (racemic) . Reported TD50?
## Result > 40 mg/kg

###

# Test system: Mus musculus
# ASSAY_INFO: Anticonvulsant activity in ip dosed NMRI mouse assessed as protection against 6 Hz psychomotor seizure after 30 mins
# Format: functional
# TEST_PARAMETERS: 0.5 h
For each record, write down the corresponding ED50.

Take a look at these entries with their results.
MOLECULE: NC(C(=O)NCc1ccccc1)c1cnc2ccccc2n1 (racemic)
SYSTEM_TESTED: Mus musculus
RECORDED_MEASUREMENT: > 120 mg/kg

MOLECULE: NC(C(=O)NCc1ccccc1)c1nccs1 (racemic)
SYSTEM_TESTED: Mus musculus
RECORDED_MEASUREMENT: > 140 mg/kg

MOLECULE: NC(C(=O)NCc1ccccc1)c1cccnc1 (racemic)
SYSTEM_TESTED: Mus musculus
RECORDED_MEASUREMENT: > 210 mg/kg

Each of the following entries comes with a recorded value; kindly state ED50 for each.
1. NC(C(=O)NCc1ccccc1)c1ccco1 (racemic)
2. COC[C@@H](NC(C)=O)C(=O)NCc1ccccc1 [LACOSAMIDE]
3. NC(C(=O)NCc1ccccc1)c1ccc2ccccc2n1 (racemic)
4. NC(C(=O)NCc1ccccc1)c1ccncc1 (racemic)
5. NC(C(=O)NCc1ccccc1)c1cc2ccccc2o1 (racemic)
6. NC(C(=O)NCc1ccccc1)c1nccc2ccccc12 (racemic)
7. NC(C(=O)NCc1ccccc1)c1ccccn1 (racemic)

## Result
1: > 150 mg/kg; 2: 10 mg/kg; 3: > 130 mg/kg; 4: > 120 mg/kg; 5: > 120 mg/kg; 6: > 93 mg/kg; 7: > 100 mg/kg

## Task // map NC(C(=O)NCc1ccccc1)c1cccc2ccccc12 (racemic) to recorded ED50 (system: Mus musculus)
## Result > 59 mg/kg

###

# Test system: Mus musculus
# ASSAY_INFO: Anticonvulsant activity in ip dosed NMRI mouse assessed as protection against maximal electroshock-induced seizure after 30 mins postdose
# Assay type: functional
# TEST_PARAMETERS: 0.5 h
Binarize ED50 at 80 mg/kg; below is T, at or above is F.

## Task Determine whether this compound shows ED50 lower than 80 mg/kg (ties excluded): COC[C@@H](NC(C)=O)C(=O)NCc1ccccc1 [LACOSAMIDE]
## Result T

## Task For this compound, is ED50 lower than 80 mg/kg? NC(C(=O)NCc1ccccc1)c1cnccn1 (racemic)
## Result F

###

# ASSAY_INFO: Neurotoxicity in ip dosed albino CF-1 mouse by rotorod test
# Type: toxicity, organism-based
# TEST_PARAMETERS: in vivo
READOUT_NAME: TD50 (mg/kg)
Answers are plain numbers, in mg/kg.

Solved entries:
MOLECULE: CC(=O)NC(C(=O)NCc1ccccc1)c1cc2ccccc2o1 (racemic)
READOUT_NAME: TD50
RECORDED_MEASUREMENT: 100
//
MOLECULE: CC(=O)NC(C(=O)NCc1ccccc1)c1ccccn1 (racemic)
READOUT_NAME: TD50
RECORDED_MEASUREMENT: 25
//
MOLECULE: CC(=O)NC(C(=O)NCc1ccccc1)c1cccs1 (racemic)
READOUT_NAME: TD50
RECORDED_MEASUREMENT: 30

Shifting focus to the molecule that follows.
## Task Consider the molecule shown here: CC(=O)NC(C(=O)NCc1ccccc1)c1cc2ccccc2s1 (racemic) What is its recorded TD50?
## Result 100
